- Tested on: NCI-H23 lung
- TEST_SUMMARY: NCI tumour cell line growth inhibition, 48 h
A collection of compounds and their measured TGI

Here are 2 compounds together with their reported answers.
Nc1ncnc2c1nnn2C1C=CC(CP(=O)(O)O)C1 (stereo not drawn) = > 100 µM
Cc1nc(N)nc(CCC(=O)Nc2cccc(C(F)(F)F)c2)c1-c1ccc(Cl)cc1 = > 100 µM

Then there is this compound:
I have this compound here, Cn1c2ccccc2c2ccc3c(c21)C(=O)c1ccc2c4ccccc4n(C)c2c1C3=O , and I need its recorded TGI.
> 100 µM

* * *

- System: SF-295 CNS
- TEST_SUMMARY: NCI tumour cell line growth inhibition, 48 h; in the data active = GI50 below about 0.43 µM; inactive = the rest
# valid calls are active, inactive; nothing else

Before answering, review these 3 worked examples.
COc1cc(CNc2nc3cc(N)cc(N)c3nc2-c2ccccc2)cc(OC)c1 = inactive
Cc1c2ccnc(C(N)=O)c2c(C)c2c1[nH]c1ccccc12 = inactive
COC1N(C2CC(O)C(CO)O2)C(=O)NC(=O)C1(F)Br (stereo unspecified) = inactive

Write down the call the test reported for this compound. Item: FC(F)(F)Oc1cccc(-c2cc(NCCCCCCNc3cc(-c4cccc(OC(F)(F)F)c4)nc4ccc(N5CCCC5)cc34)c3cc(N4CCCC4)ccc3n2)c1
inactive

Entry COc1ccc(OC)c(NCC(=O)n2nc(/C=C\c3ccc(O)c(OC)c3)cc2/C=C\c2ccc(O)c(OC)c2)c1 please
inactive

Entry to check: COc1ccc2c(N)ncc(C#Cc3cc(C(=O)Nc4ccc(CN5CCN(C)CC5)c(C(F)(F)F)c4)cnc3C)c2c1
inactive

Another compound: CN(C)CCCC1(c2ccc(F)cc2)OCc2cc(-c3cccc4[nH]ccc34)ccc21 (stereo unspecified)
inactive

What about COc1ccc2c(c1)c(-c1nc(-c3c[nH]c4ncccc34)cs1)cn2CCCN1CCOCC1 ?
inactive

Moving on to CCNc1nc(O)c(/C=C2\C=Nc3ncccc32)s1
inactive

Follow-up entry: O=C1c2cccc(Oc3ccccc3)c2C(=O)c2cccc(Oc3ccccc3)c21
inactive

* * *

- Test system: NCI/ADR-RES ovarian
- TEST_SUMMARY: NCI tumour cell line growth inhibition, 48 h
Listing of entries alongside the reported TGI.

Completed entries (count: 4):
COc1ccc(OC)c(/C=C/c2nc(=S)n(-c3ccc(Cl)cc3)[nH]2)c1 = > 100 µM
O=C(NCc1ccccc1)c1cc2ccccc2oc1=Nc1cccc(C(F)(F)F)c1 = > 100 µM
CCN(CC)CCCNc1ccc(C)c2sc3ccccc3c(=O)c12 = 4.48 µM
O=C(c1ccco1)N(C(=O)N1CCCCC1)c1ccccc1 = > 100 µM

State its TGI on NCI/ADR-RES ovarian: COc1ccc2ccc3oc(=O)c(C)cc3c2c1
> 100 µM

Moving on to the next molecule: CN(C)C(=O)C(F)(F)C(c1ccc(F)cc1)C1C(=O)N(C)C(=O)N(C)C1=O (stereo unspecified)
> 100 µM

What about this molecule? COc1ccc(OC)c(NCC(=O)n2nc(/C=C\c3ccc(O)c(OC)c3)cc2/C=C\c2ccc(O)c(OC)c2)c1
> 100 µM

Moving on to the next molecule: O=C(CC(NC(=O)C(F)(F)F)C(=O)O)OCc1ccccc1 (stereo unspecified)
> 100 µM

Field entry: c1ccc2c(c1)SCCCS2
> 100 µM

Would you mind doing CN(CCN1CCCC1)C1CCc2cc(Cl)c(Cl)cc2C1 (stereo unspecified) as well?
28 µM

What do we get for CCn1cc(C(=O)O)c(=O)c2cc(F)c(N3CCN(S(=O)(=O)c4cccc5ccccc45)CC3)cc21 ?
> 100 µM

* * *

- Tested on: PC-3 prostate
- TEST_SUMMARY: NCI tumour cell line growth inhibition, 48 h
// values below are reported TGI
# value in µM; strip the unit string

Cc1nc2ccc(Cl)cc2c(-n2ccnc2)c1CCn1ccnc1 = 72.1

Look up TGI for this compound: CCCCCOc1ccc(/C=N/Nc2cc(C)nc3ccc(Cl)cc23)cc1
3.1

* * *

- Test system: RPMI-8226 leukemia
- TEST_SUMMARY: NCI tumour cell line growth inhibition, 48 h
Entries and their TGI
A number alone suffices; assume µM.

Please report the recorded TGI for CCN(CC)CCCNc1ccc(C)c2sc3ccccc3c(=O)c12 .
1.34

* * *

- Tested on: M14 melanoma
- TEST_SUMMARY: NCI tumour cell line growth inhibition, 48 h
Parameter: TGI. Scope: all listed entries.

# example entries with known answers
COC(=O)CNC(=O)C(CSC(=O)OCC1c2ccccc2-c2ccccc21)NC(=O)CCC(NC(=O)OCC1c2ccccc2-c2ccccc21)C(=O)OC (stereo unspecified) = 58.9 µM
Cc1nc2ccccc2nc1CC(=O)C(=O)Nc1ccc(Cl)cc1Cl = > 100 µM
O=C(/C=C/c1ccc(O)c(O)c1)OCCc1ccc2ccccc2c1 = 16.9 µM
COc1ccc(CNc2cnc3ccc(N)cc3n2)cc1 = > 100 µM
Nc1ncnc2c1nnn2C1C=CC(CP(=O)(O)O)C1 (stereo unspecified) = > 100 µM
CCOC(=O)/C=C/c1nc(C#N)c(N)o1 = > 100 µM
CCn1c2c(c3ccccc3c1=O)C(=O)c1ccccc1-2 = > 100 µM
N#CNC(N)=NCc1ccccc1 = > 100 µM

Bench note: what TGI did Cc1c(C)n(-c2ccccc2)c2nc(S(C)=O)nc(S(C)=O)c12 (stereo unspecified) show?
6.45 µM

Also Cc1nnc2n(c1=O)CCCN2C , if possible.
> 100 µM

Let us now turn to CCN(CC)CCCNc1ccc(C)c2sc3ccccc3c(=O)c12
0.401 µM

* * *

Some molecules, each annotated with its measured TGI.
- System: UACC-62 melanoma
- TEST_SUMMARY: NCI tumour cell line growth inhibition, 48 h
The answer is to be given in µM; state only the numeric part.

O=C(ON=C1c2ccccc2C(Br)C(Br)c2ccccc21)c1ccccc1 (configuration not stated) = 32.7
Cn1c([N+](=O)[O-])cnc1C=C1C(=O)c2ccccc2C1=O = 5.75
O=C(/C=C/c1ccc(O)c(O)c1)OCCc1ccc2ccccc2c1 = 13.9
CCNc1nc(O)c(/C=C2\C=Nc3ncccc32)s1 = 9.11
COc1cccc(C2c3cc4c(cc3OC(O)C2C)OCO4)c1OC (configuration not stated) = 44.7

Look up TGI with UACC-62 melanoma for this molecule: N#CC1c2ccccc2C=CN1C(=O)CCCl (configuration not stated)
29.7

// next record CN(O)C(=O)/C=C/c1ccc(OCc2cccc(Cl)c2)cc1
31.3

Note, next up: NNC(=O)C(=O)N/N=C1/CCCC1C(=O)CCC(=O)Nc1ccc(Cl)cc1 (configuration not stated)
24

Further, for OC1(c2ccc(Cl)c(C(F)(F)F)c2)CCN(CCCC(c2ccc(F)cc2)c2ccc(F)cc2)CC1 ?
1.5

* * *

- System: BT-549 breast
- TEST_SUMMARY: NCI tumour cell line growth inhibition, 48 h; in the data active means GI50 below about 0.43 µM; inactive means the rest
Pick one: active, inactive

Please review the entries below; each comes with its answer.
CCCCCCCCCCCC[N+]1(CCCCCCCCCCCC)CCCC(C)C1 (configuration not stated) = inactive
Cn1c([N+](=O)[O-])cnc1C=C1C(=O)c2ccccc2C1=O = inactive
CSC1=Nc2c(c(C)c(C)n2COC(CO)CO)C2=NC(=O)CN12 = inactive

GET /call?item= COc1cc(CNc2nc3cc(N)cc(N)c3nc2-c2ccccc2)cc(OC)c1 returns the recorded outcome of this test.
inactive

Nc1nc2c(c3cnccc13)C(c1ccc(Cl)c(Cl)c1)Cc1cnccc1-2 (configuration not stated) , same question.
inactive

Another compound to check: N#CC1(c2ccc(NC(=O)c3cccnc3NCc3ccncc3)cc2)CCCC1
inactive

Here is the next compound: CCN1C(=S)N(CC)C2C1NC(=S)N2/N=C/C=C/c1ccccc1OC (configuration not stated)
inactive

What do you have for CC1(C)N=C(N)N=C(N)N1c1ccc(CCC(=O)Nc2ccc(S(=O)(=O)F)cc2)cc1 ?
inactive

How about CC(C)(CO)CNC(=O)c1ccc2[nH]c(O)c(N=Nc3ccc(S(N)(=O)=O)cc3)c2c1 ?
inactive

Same question, CCNc1nc(O)c(/C=C2\C=Nc3ncccc32)s1 this time
inactive

Further, for Cc1ccc(O)cc1Nc1ccnc2ccc(S(C)(=O)=O)cc12 ?
inactive

Moving on to CCCCCOc1ccc(/C=N/Nc2cc(C)nc3ccc(Cl)cc23)cc1
inactive

* * *

- System: SNB-19 CNS
- TEST_SUMMARY: NCI tumour cell line growth inhibition, 48 h
Here, each record is paired with measured TGI data.

O=C(/C=C/C12c3ccccc3C(c3ccccc31)C1C(=O)NC(=O)C12)c1ccccn1 (centres undefined) = 3.22 µM
COC(=O)OC1C(O[C@H]2C[C@H]3[C@@H]4CC=C5C[C@@H](O)CC[C@]5(C)[C@H]4CC[C@]3(C)[C@H]2[C@H](C)C(=O)CCC(C)C)OCC(O)C1OC1OCC(O)C(O)C1OC(=O)c1ccc(OC)cc1 (some centres undefined) = 2.24 µM
O=C1NC(=N[C@@H](CO)c2ccccc2)S/C1=C\c1ccc2ncccc2c1 = > 25 µM
O=C(O)c1nc2ccc(C(F)(F)F)cc2[nH]c1=O = > 100 µM
Nc1ncc(Cc2ccc3c(c2)OCO3)c(N)n1 = > 100 µM
Cn1c2ccccc2c2ccc3c(c21)C(=O)c1ccc2c4ccccc4n(C)c2c1C3=O = > 100 µM
CC1(C)OC[C@@H]([C@@]2(CO[Si](c3ccccc3)(c3ccccc3)C(C)(C)C)CC=CC(=O)O2)O1 = 97.5 µM
CCOC(=O)c1c(N2CCCC2)[nH]c(=O)c(C(c2ccc(OC)cc2)c2c(O)c(C(=O)OCC)c(N3CCCC3)[nH]c2=O)c1O = > 100 µM

Please report the recorded TGI for OCc1cn(Cc2ccccc2)c2ccccc12 .
> 100 µM
